Target: Rap guanine nucleotide exchange factor 3 (Homo sapiens) (UniProt O95398)
Sequence (O95398 whole entry, looked up): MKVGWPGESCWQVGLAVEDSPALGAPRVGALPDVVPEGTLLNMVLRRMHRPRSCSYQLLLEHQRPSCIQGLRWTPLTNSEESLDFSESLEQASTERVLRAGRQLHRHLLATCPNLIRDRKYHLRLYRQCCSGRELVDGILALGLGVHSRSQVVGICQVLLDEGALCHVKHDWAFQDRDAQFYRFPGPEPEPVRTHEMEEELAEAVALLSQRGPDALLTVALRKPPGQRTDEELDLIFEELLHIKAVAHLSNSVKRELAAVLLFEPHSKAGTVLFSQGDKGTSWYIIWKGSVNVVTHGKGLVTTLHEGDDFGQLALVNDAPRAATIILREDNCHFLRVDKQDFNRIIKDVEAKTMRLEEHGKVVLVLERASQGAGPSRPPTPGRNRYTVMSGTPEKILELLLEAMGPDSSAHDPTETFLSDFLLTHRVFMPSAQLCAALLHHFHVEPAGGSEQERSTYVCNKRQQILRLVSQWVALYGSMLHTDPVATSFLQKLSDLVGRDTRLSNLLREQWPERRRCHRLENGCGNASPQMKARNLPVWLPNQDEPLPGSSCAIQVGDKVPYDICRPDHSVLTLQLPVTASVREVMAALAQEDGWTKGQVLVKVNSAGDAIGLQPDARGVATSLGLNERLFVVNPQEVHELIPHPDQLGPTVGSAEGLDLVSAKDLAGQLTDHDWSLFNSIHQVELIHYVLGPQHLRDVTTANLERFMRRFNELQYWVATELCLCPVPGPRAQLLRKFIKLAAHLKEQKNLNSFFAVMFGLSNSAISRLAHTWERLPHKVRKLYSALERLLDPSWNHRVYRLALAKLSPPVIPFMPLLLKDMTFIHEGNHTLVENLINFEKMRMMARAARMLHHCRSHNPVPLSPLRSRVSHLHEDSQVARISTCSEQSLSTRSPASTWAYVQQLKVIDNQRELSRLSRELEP
Assay: Confirmatory qHTS for antagonist of cAMP-regulated guanine nucleotide exchange factor 3 (EPAC1) (AID 1645880); further: nearly all actives have a fitted effect of over 55% in size
Details: EPAC1 Rap1B-BODIPY-GDP exchange, fluorescence
Results filed as inconclusive are left out. The source made the active and inactive calls. The call rests on the fitted dose curve; in most records, active means well fitted inhibition curve with a large enough effect; inconclusive means small, poorly fitted or top-dose-only effect; inactive means no such curve, though single readings can be large or run the other way.
The reply should name one outcome from TRUE (active), FALSE (inactive)

Here's what some known entries look like.
{"molecule": "CC(C)(C)c1c(Cl)c(O)c(-c2ccccc2)c(=O)n1-c1ccccc1", "assay.system": "Rap guanine nucleotide exchange factor 3 (Homo sapiens) (UniProt O95398)", "assigned.category": "TRUE"}
{"molecule": "COc1ccc(NS(=O)(=O)c2cc(N)ccc2N2CCCCC2)cc1", "assay.system": "Rap guanine nucleotide exchange factor 3 (Homo sapiens) (UniProt O95398)", "assigned.category": "FALSE"}
{"molecule": "O=c1cnc2cnc(Oc3ccccc3)nc2n1Cc1cccs1", "assay.system": "Rap guanine nucleotide exchange factor 3 (Homo sapiens) (UniProt O95398)", "assigned.category": "FALSE"}
{"molecule": "CN(C)c1ccc(/C=C/c2sc3ccccc3[n+]2CCCCBr)cc1", "assay.system": "Rap guanine nucleotide exchange factor 3 (Homo sapiens) (UniProt O95398)", "assigned.category": "FALSE"}

Lookup: Hi, sorry to bother you, what did the test record for CCCCCCn1c(=O)[nH]c2nc3cc(N)c(C)cc3nc2c1=O ?
Found: FALSE

Lookup: Hi, sorry to bother you, what did the test record for O=c1cnc2cnc(OCc3ccccc3)nc2n1CCc1ccccc1 ?
Found: FALSE

Lookup: Hi, sorry to bother you, what did the test record for O=C(C1=C(O)C(=O)N(c2nc3ccc(Cl)cc3s2)C1c1ccco1)c1ccco1 (centres undefined) ?
Found: TRUE

Lookup: Hi, sorry to bother you, what did the test record for Cn1cc(C(=O)C(=O)N2CCCCC2)c2ccccc21 ?
Found: FALSE

Lookup: Hi, sorry to bother you, what did the test record for CCCCn1nnnc1C(c1cc2ccccc2o1)N1CCCCC1 (centres undefined) ?
Found: FALSE

* * *

Target: Rap guanine nucleotide exchange factor 3 (Homo sapiens) (UniProt O95398)
Assay: Counterscreen qHTS for antagonist of cAMP-regulated guanine nucleotide exchange factor 3 (EPAC1) (AID 1645888);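 further: fluorescence loss as bound BODIPY-GDP is released from Rap1B; % of control where 0% means no effect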
Conditions: Rap1B-BODIPY-GDP nucleotide exchange, fluorescence; series mostly up to 154 µM
Records with an inconclusive call do not appear. Activity calls are given as the source filed them. The call rests on the fitted dose curve; in most records, active means well fitted inhibition curve with a large enough effect; inconclusive means small, poorly fitted or top-dose-only effect; inactive means no such curve, though single readings can be large or run the other way.
test.readout: activity change, negative = inhibition

// below: answered compounds
{"compound": "Cc1cc(C)cc(NC(=O)CSc2nnc(-c3cc4occc4n3C)n2-c2ccccc2C)c1", "activity change, negative = inhibition": "inactive"}
{"compound": "O=C(CSc1nc(O)cc(=O)n1-c1ccccc1)Nc1nc2ccccc2s1", "activity change, negative = inhibition": "inactive"}
{"compound": "CCCCOc1cccc(C2C(C(=O)c3ccc(C)o3)=C(O)C(=O)N2c2nnc(C)s2)c1 (stereo not given)", "activity change, negative = inhibition": "inactive"}
{"compound": "CCN(CC)c1ccc2cc(C=O)c(=O)oc2c1", "activity change, negative = inhibition": "96.9% [at 30.8 µM] (inactive)"}
{"compound": "Cc1cc(NS(=O)(=O)c2ccc(NC(=O)COc3c(C)cc(Br)cc3C)cc2)no1", "activity change, negative = inhibition": "inactive"}

Sure, the documented activity change, negative = inhibition for C[n+]1cccc2c(Br)ccc([O-])c21 is inactive

Sure, the documented activity change, negative = inhibition for COc1ccc(CC(=O)NCc2ccc3c(c2)CCN3C(=O)c2ccc(Cl)cc2)cc1OC is inactive

Sure, the documented activity change, negative = inhibition for COC(=O)c1nn(-c2ccccc2)c(Sc2ccc(OC)cc2)c1/C=N/O is -27.4% [at 30.8 µM] (inactive)

Sure, the documented activity change, negative = inhibition for CCN1CCc2c(sc(-n3cccc3)c2C(C)NC(=O)Nc2ccc(C(=O)OC)cc2)C1 (stereo not given) is inactive

Sure, the documented activity change, negative = inhibition for Cc1[nH]n(-c2ncc(-c3ccccc3)s2)c(=O)c1C(c1ccc(Cl)cc1)C(C#N)C#N (stereo not given) is -10.4% [at 30.8 µM] (inactive)
